Quick reference for glycan array binding signal (z-score) among some binders
Biological target: Neu5Ac(a2-6)Gal(b1-4)GlcNAc(b1-3)Gal(b1-4)[Fuc(a1-3)]GlcNAc(b1-3)Gal(b1-4)[Fuc(a1-3)]GlcNAc
Experiment: glycan array binding signal (z-score within array); higher = stronger binding
Settings: glycan notation: IUPAC condensed, linker removed
Many of the other results were omitted from the sample, so the strongest signals are more common in it than they were.

Use these answered entries as a reference point.
Binder	glycan array binding signal (z-score)
L-Selectin (Mus musculus), P18337 (protein) MVFPWRCEGTYWGSRNILKLWVWTLLCCDFLIHHGTHCWTYHYSEKPMNWENARKFCKQNYTDLVAIQNKREIEYLENTLPKSPYYYWIGIRKIGKMWTWVGTNKTLTKEAENWGAGEPNNKKSKEDCVEIYIKRERDSGKWNDDACHKRKAALCYTASCQPGSCNGRGECVETINNHTCICDAGYYGPQCQYVVQCEPLEAPELGTMDCIHPLGNFSFQSKCAFNCSEGRELLGTAETQCGASGNWSSPEPICQVVQCEPLEAPELGTMDCIHPLGNFSFQSKCAFNCSEGRELLGTAETQCGASGNWSSPEPICQETNRSFSKIKEGDYNPLFIPVAVMVTAFSGLAFLIWLARRLKKGKKSQERMDDPY	-0.252
STA (Solanum tuberosum), Q9S8M0 (protein) NASPPSPSPLPYPQCGMKKGGGKCIKTGECCSIWGWCGTTNAYCSPGYCQKQCPGPYPEGRCGWQANGKSCPTGTGQCCSNGGWCGTTSDYCASKNCQSQCKLPSPPPPPPPPSPPPPSPPSPPPPSPPPPPPPSPPPPSPPPPSPSPPPPPASPPPPPPALPYPQCGIKKGGGKCIKTGECCSIWGWCGTTNAYCSPGYCQKQCPGPYPEGRCGWQANGKSCPTGTGHCCSNAGWCGTTSDYCAPVNCQAQCNTTTLTSPIKNRMRGIESFMLNVV	-0.578
LTL (Lotus tetragonolobus), P19664 (protein) VSFNYTEFKDDGSLILQGDAKIWTDGRLAMPTDPLVNNPKTTRSAGRALYATPVPIWDSATGNVASFVTSFNFLFVIRELKYTPTDGLVFFLAPVGTEIPSGSTGGFLGIFDGSNGFNQFVAVEFDSYHNIWDPKSLRSSHVGIDVNSIMSLKAVNWNRVSGSLEKATIIYDSQTNILSVVMTSQNGQITTIYGTIDLKTVLPEKVSVGFSATTGNPEREKHDIYSWSFTSTLKEPEEQA	-0.039

Now for a further binder.
The recorded glycan array binding signal (z-score) for entry Tulipa lectin C-1 (Tulipa hybrid) (protein) MGMALVVALAVALASTVAGQQNVLLSGNTLANEESLSYGSVKFIMQNDCNLVLYGGGFQSNTASNGKKCTLTLNNNGHLIINDGLTGRVVWRNSNAQNPVGRYAAVLRPAPGTADVAIYGPAIWSTNDEFSYQESGVVPHKLGRETPNLPRMQNLLFSGQTLYGTDGMLSSNDGSTTFELSKCQLSLSLGNEVKWKVAPTVENGKENYCHVRLDHRGHLSLLNDDNVVLFRSIPTNGVEPPIGDYVLIVEKGAGYIYGPPIWNTYDNRRYKVASA equals -0.093

// data source = the supplement of paper PMC8728848
